- measurement.protocol: qHTS for inhibitors of adenylyl cyclases using a fission yeast platform: a pilot screen against the NCATS LOPAC library (AID 1347410)
- protocol.conditions: S. pombe CHP2027, fbp1-GFP fluorescence, 18 h, yeast expressing mammalian AC9 and human GNAS; series mostly up to 57.5 µM
Activity calls are given as the source filed them. Calls come from the whole dose curve; as a rule, active = well fitted curve in the direction sought with a large enough effect; inconclusive = small, poorly fitted or top-dose-only effect, or effect the other way, or another doubt; inactive = no such curve, though single readings can be large or run the other way.
measure.name: outcome

molecule | outcome
CN(C)CCC=C1c2ccccc2C=Cc2ccccc21 | inactive
NCCS(=O)(=O)O | inactive
CN1C(C(=O)Nc2ccccn2)=C(O)c2ccccc2S1(=O)=O | inactive
COc1ccccc1OCC(O)CN1CCN(CC(=O)Nc2c(C)cccc2C)CC1 (centres undefined) | inactive
CN1CCC(=C2c3ccccc3C=Cc3ccccc32)CC1 | inactive

*Q* # query: outcome of entry COc1cc2nc(N3CCN(C(=O)C4COc5ccccc5O4)CC3)nc(N)c2cc1OC (centres undefined)
*A* inactive

*Q* # query: outcome of entry `N[C@@H](Cc1c[nH]c2ccc(O)cc12)C(=O)O`
*A* inactive

*Q* # query: outcome of entry `NCCCCCC(=O)O`
*A* inactive

*Q* # query: outcome of entry `COC(=O)Nc1nc2ccc(C(=O)c3cccs3)cc2[nH]1`
*A* inactive

*Q* # query: outcome of entry `CCOC(=O)c1ncn2c1CN(C)C(=O)c1cc(F)ccc1-2`
*A* inactive

---

- target.desc: Luciferin 4-monooxygenase (Photinus pyralis)
- measurement.protocol: Biochemical firefly luciferase enzyme assay for NPC (AID 624030); note: nearly all actives have a fitted effect of over 70% in size
- protocol.conditions: purified P. pyralis luciferase, luminescence, 5 min; series mostly up to 58.6 µM
Results filed as inconclusive are left out. The source made the active and inactive calls. The call rests on the fitted dose curve; in most records, active means well fitted inhibition curve with a large enough effect; inconclusive means small, poorly fitted or top-dose-only effect; inactive means flat fitted curve, though single readings scatter.
// classify into active, inactive

Recorded results for 5 compounds are shown here.
compound | group
CNCCCC12CCC(c3ccccc31)c1ccccc12 | inactive
NC(=O)OCC(COC(N)=O)c1ccccc1 | inactive
CN(C)C(=N)N=C(N)N | inactive
O=c1c(-c2ccc(O)cc2)coc2cc(O)cc(O)c12 | active
COC(=O)Nc1nc2ccc(C(=O)c3cccs3)cc2[nH]1 | inactive

*Q* So what was the verdict on `COc1ccc2[nH]cc(CCNC(C)=O)c2c1` in this test?
*A* inactive

*Q* So what was the verdict on `COc1cc2c(c(OC)c1OC)-c1ccc(OC)c(=O)cc1[C@@H](NC(C)=O)CC2` in this test?
*A* inactive

*Q* So what was the verdict on `CN(C)c1nc(N(C)C)nc(N(C)C)n1` in this test?
*A* inactive

*Q* So what was the verdict on `CN(C)CCCN1c2ccccc2CCc2ccc(Cl)cc21` in this test?
*A* inactive

*Q* So what was the verdict on `CN(Cc1cnc2nc(N)nc(N)c2n1)c1ccc(C(=O)N[C@@H](CCC(=O)O)C(=O)O)cc1` in this test?
*A* inactive

*Q* So what was the verdict on `Nc1nc2c(ncn2COC(CO)CO)c(=O)[nH]1` in this test?
*A* inactive

*Q* So what was the verdict on `CN(C)CCC=C1c2ccccc2C=Cc2ccccc21` in this test?
*A* inactive

*Q* So what was the verdict on `O=C(c1ccc(F)cc1)C1CCN(CCn2c(=O)[nH]c3ccccc3c2=O)CC1` in this test?
*A* inactive

*Q* So what was the verdict on CC(C)NCC(O)c1ccc(O)c(O)c1 (centres undefined) in this test?
*A* inactive

*Q* So what was the verdict on `CC12CC3CC(C)(C1)CC(N)(C3)C2` in this test?
*A* inactive

*Q* So what was the verdict on `Cc1ccc(-c2cc(C(F)(F)F)nn2-c2ccc(S(N)(=O)=O)cc2)cc1` in this test?
*A* inactive

*Q* So what was the verdict on CN1CCN2c3ccccc3Cc3ccccc3C2C1 (centres undefined) in this test?
*A* inactive

*Q* So what was the verdict on `Cn1c(=O)c2[nH]cnc2n(C)c1=O` in this test?
*A* inactive

*Q* So what was the verdict on `CC(C)C(=O)Nc1ccc([N+](=O)[O-])c(C(F)(F)F)c1` in this test?
*A* inactive

*Q* So what was the verdict on CC(C)NCC(O)COc1ccc(CCOCC2CC2)cc1 (centres undefined) in this test?
*A* inactive

*Q* So what was the verdict on `O=C(Nc1ccc([N+](=O)[O-])cc1Cl)c1cc(Cl)ccc1O` in this test?
*A* active

*Q* So what was the verdict on `Cc1cc(C(C)(C)C)c(O)c(C)c1CC1=NCCN1` in this test?
*A* inactive

*Q* So what was the verdict on `Cc1ccc(C(=O)Nc2ccc(S(=O)(=O)O)c3cc(S(=O)(=O)O)cc(S(=O)(=O)O)c23)cc1NC(=O)c1cccc(NC(=O)Nc2cccc(C(=O)Nc3cc(C(=O)Nc4ccc(S(=O)(=O)O)c5cc(S(=O)(=O)O)cc(S(=O)(=O)O)c45)ccc3C)c2)c1` in this test?
*A* active

The measured values listed here are drawn from PubChem BioAssay (NCATS).
